# system: Cholinesterase (Equus caballus)
# Sequence (P81908 whole entry): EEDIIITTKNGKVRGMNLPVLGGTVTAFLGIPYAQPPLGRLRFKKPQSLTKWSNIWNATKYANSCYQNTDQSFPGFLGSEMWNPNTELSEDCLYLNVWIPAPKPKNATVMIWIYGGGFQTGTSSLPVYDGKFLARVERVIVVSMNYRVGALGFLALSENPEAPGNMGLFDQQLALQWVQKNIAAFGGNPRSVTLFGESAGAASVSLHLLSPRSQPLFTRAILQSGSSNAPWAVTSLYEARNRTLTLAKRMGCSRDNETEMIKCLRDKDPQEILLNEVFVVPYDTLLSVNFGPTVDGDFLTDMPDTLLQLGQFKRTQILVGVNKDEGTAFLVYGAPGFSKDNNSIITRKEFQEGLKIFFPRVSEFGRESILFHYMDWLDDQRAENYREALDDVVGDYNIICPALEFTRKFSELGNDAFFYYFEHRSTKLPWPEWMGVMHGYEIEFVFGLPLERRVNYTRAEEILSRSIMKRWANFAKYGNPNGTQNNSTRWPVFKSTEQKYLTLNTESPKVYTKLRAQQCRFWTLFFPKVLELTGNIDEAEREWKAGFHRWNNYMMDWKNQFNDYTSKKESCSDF
# method summary: Inhibition of equine serum BChE using S-butyrylthiocholine chloride as substrate preincubated for 15 mins by spectrophotometer analysis
Quick rule for you: IC50 under 20 µM gets met, anything else gets not met.

{"molecule": "O=C(C1CC(c2ccccc2)NC12C(=O)Nc1ccccc12)N1C/C(=C\\c2ccccc2Cl)C(=O)C2(C1)C(c1ccccc1Cl)C(c1ccccc1)NC21C(=O)Nc2ccccc21 (racemic)", "class label": "met"}
{"molecule": "O=C(C1CC(c2ccccc2)NC12C(=O)Nc1ccccc12)N1C/C(=C\\c2ccc(Cl)cc2)C(=O)C2(C1)C(c1ccc(Cl)cc1)C(c1ccccc1)NC21C(=O)Nc2ccccc21 (racemic)", "class label": "not met"}
{"molecule": "C=CC(=O)N1C/C(=C\\c2ccc(Cl)cc2)C(=O)C2(C1)C(c1ccc(Cl)cc1)C(c1ccccc1)NC21C(=O)Nc2ccccc21 (racemic)", "class label": "met"}
{"molecule": "O=C(C1CC(c2ccccc2)NC12C(=O)Nc1ccccc12)N1C/C(=C\\c2ccc(Cl)cc2Cl)C(=O)C2(C1)C(c1ccc(Cl)cc1Cl)C(c1ccccc1)NC21C(=O)Nc2ccccc21 (racemic)", "class label": "not met"}
{"molecule": "O=C(C1CC(c2ccccc2)NC12C(=O)Nc1ccccc12)N1C/C(=C\\c2ccc(F)cc2)C(=O)C2(C1)C(c1ccc(F)cc1)C(c1ccccc1)NC21C(=O)Nc2ccccc21 (racemic)", "class label": "met"}
{"molecule": "C=CC(=O)N1C/C(=C\\c2ccccc2Cl)C(=O)C2(C1)C(c1ccccc1Cl)C(c1ccccc1)NC21C(=O)Nc2ccccc21 (racemic)", "class label": "not met"}
{"molecule": "O=C(C1CC(c2ccccc2)NC12C(=O)Nc1ccccc12)N1C/C(=C\\c2ccccc2F)C(=O)C2(C1)C(c1ccccc1F)C(c1ccccc1)NC21C(=O)Nc2ccccc21 (racemic)", "class label": "not met"}
{"molecule": "C=CC(=O)N1C/C(=C\\c2ccc(Cl)cc2Cl)C(=O)C2(C1)C(c1ccc(Cl)cc1Cl)C(c1ccccc1)NC21C(=O)Nc2ccccc21 (racemic)", "class label": "not met"}
{"molecule": "C=CC(=O)N1C/C(=C\\c2cccc3ccccc23)C(=O)C2(C1)C(c1cccc3ccccc13)C(c1ccccc1)NC21C(=O)Nc2ccccc21 (racemic)", "class label": "met"}
{"molecule": "C=CC(=O)N1C/C(=C\\c2ccccc2OC)C(=O)C2(C1)C(c1ccccc1OC)C(c1ccccc1)NC21C(=O)Nc2ccccc21 (racemic)", "class label": "met"}
{"molecule": "C=CC(=O)N1C/C(=C\\c2ccc(F)cc2)C(=O)C2(C1)C(c1ccc(F)cc1)C(c1ccccc1)NC21C(=O)Nc2ccccc21 (racemic)", "class label": "met"}
{"molecule": "O=C(C1CC(c2ccccc2)NC12C(=O)Nc1ccccc12)N1C/C(=C\\c2cccc([N+](=O)[O-])c2)C(=O)C2(C1)C(c1cccc([N+](=O)[O-])c1)C(c1ccccc1)NC21C(=O)Nc2ccccc21 (racemic)", "class label": "met"}

====

# method summary: Selectivity ratio of IC50 for electric eel AChE to IC50 for equine serum BChE
// class assignment uses Ratio IC50 with these ranges: low range: < 0.3; mid range: ≥ 0.3 and < 1; high range: ≥ 1

{"compound": "O=C(C1CC(c2ccccc2)NC12C(=O)Nc1ccccc12)N1C/C(=C\\c2ccc(F)cc2)C(=O)C2(C1)C(c1ccc(F)cc1)C(c1ccccc1)NC21C(=O)Nc2ccccc21 (racemic)", "class label": "high range"}
{"compound": "C=CC(=O)N1C/C(=C\\c2ccc(F)cc2)C(=O)C2(C1)C(c1ccc(F)cc1)C(c1ccccc1)NC21C(=O)Nc2ccccc21 (racemic)", "class label": "high range"}
{"compound": "COc1ccccc1/C=C1\\CN(C(=O)C2CC(c3ccccc3)NC23C(=O)Nc2ccccc23)CC2(C1=O)C(c1ccccc1OC)C(c1ccccc1)NC21C(=O)Nc2ccccc21 (racemic)", "class label": "low range"}
{"compound": "C=CC(=O)N1C/C(=C\\c2ccc(C)cc2)C(=O)C2(C1)C(c1ccc(C)cc1)C(c1ccccc1)NC21C(=O)Nc2ccccc21 (racemic)", "class label": "high range"}
{"compound": "C=CC(=O)N1C/C(=C\\c2ccc(Cl)cc2)C(=O)C2(C1)C(c1ccc(Cl)cc1)C(c1ccccc1)NC21C(=O)Nc2ccccc21 (racemic)", "class label": "mid range"}
{"compound": "O=C(C1CC(c2ccccc2)NC12C(=O)Nc1ccccc12)N1C/C(=C\\c2cccc([N+](=O)[O-])c2)C(=O)C2(C1)C(c1cccc([N+](=O)[O-])c1)C(c1ccccc1)NC21C(=O)Nc2ccccc21 (racemic)", "class label": "mid range"}
{"compound": "O=C(C1CC(c2ccccc2)NC12C(=O)Nc1ccccc12)N1C/C(=C\\c2ccc(Cl)cc2Cl)C(=O)C2(C1)C(c1ccc(Cl)cc1Cl)C(c1ccccc1)NC21C(=O)Nc2ccccc21 (racemic)", "class label": "mid range"}
{"compound": "C=CC(=O)N1C/C(=C\\c2ccc(Cl)cc2Cl)C(=O)C2(C1)C(c1ccc(Cl)cc1Cl)C(c1ccccc1)NC21C(=O)Nc2ccccc21 (racemic)", "class label": "low range"}
{"compound": "C=CC(=O)N1C/C(=C\\c2cccc3ccccc23)C(=O)C2(C1)C(c1cccc3ccccc13)C(c1ccccc1)NC21C(=O)Nc2ccccc21 (racemic)", "class label": "low range"}

====

Ratio IC50 reference
# method summary: Selectivity ratio of IC50 for equine serum BChE to IC50 for electric eel AChE

{"compound": "C=CC(=O)N1C/C(=C\\c2ccccc2OC)C(=O)C2(C1)C(c1ccccc1OC)C(c1ccccc1)NC21C(=O)Nc2ccccc21 (racemic)", "Ratio IC50": 3.14}
{"compound": "C=CC(=O)N1C/C(=C\\c2ccc(F)cc2)C(=O)C2(C1)C(c1ccc(F)cc1)C(c1ccccc1)NC21C(=O)Nc2ccccc21 (racemic)", "Ratio IC50": 0.46}
{"compound": "O=C(C1CC(c2ccccc2)NC12C(=O)Nc1ccccc12)N1C/C(=C\\c2ccc(Cl)cc2)C(=O)C2(C1)C(c1ccc(Cl)cc1)C(c1ccccc1)NC21C(=O)Nc2ccccc21 (racemic)", "Ratio IC50": 2.25}
{"compound": "O=C(C1CC(c2ccccc2)NC12C(=O)Nc1ccccc12)N1C/C(=C\\c2cccc([N+](=O)[O-])c2)C(=O)C2(C1)C(c1cccc([N+](=O)[O-])c1)C(c1ccccc1)NC21C(=O)Nc2ccccc21 (racemic)", "Ratio IC50": 1.05}
{"compound": "C=CC(=O)N1C/C(=C\\c2ccccc2)C(=O)C2(C1)C(c1ccccc1)C(c1ccccc1)NC21C(=O)Nc2ccccc21 (racemic)", "Ratio IC50": 2.69}
{"compound": "C=CC(=O)N1C/C(=C\\c2ccc(C)cc2)C(=O)C2(C1)C(c1ccc(C)cc1)C(c1ccccc1)NC21C(=O)Nc2ccccc21 (racemic)", "Ratio IC50": 0.4}
{"compound": "Cc1ccc(/C=C2\\CN(C(=O)C3CC(c4ccccc4)NC34C(=O)Nc3ccccc34)CC3(C2=O)C(c2ccc(C)cc2)C(c2ccccc2)NC32C(=O)Nc3ccccc32)cc1 (racemic)", "Ratio IC50": 0.98}
{"compound": "C=CC(=O)N1C/C(=C\\c2cccc3ccccc23)C(=O)C2(C1)C(c1cccc3ccccc13)C(c1ccccc1)NC21C(=O)Nc2ccccc21 (racemic)", "Ratio IC50": 6.65}
{"compound": "O=C(C1CC(c2ccccc2)NC12C(=O)Nc1ccccc12)N1C/C(=C\\c2ccccc2F)C(=O)C2(C1)C(c1ccccc1F)C(c1ccccc1)NC21C(=O)Nc2ccccc21 (racemic)", "Ratio IC50": 4.81}
{"compound": "O=C(C1CC(c2ccccc2)NC12C(=O)Nc1ccccc12)N1C/C(=C\\c2ccccc2Cl)C(=O)C2(C1)C(c1ccccc1Cl)C(c1ccccc1)NC21C(=O)Nc2ccccc21 (racemic)", "Ratio IC50": 1.56}
{"compound": "C=CC(=O)N1C/C(=C\\c2cccc([N+](=O)[O-])c2)C(=O)C2(C1)C(c1cccc([N+](=O)[O-])c1)C(c1ccccc1)NC21C(=O)Nc2ccccc21 (racemic)", "Ratio IC50": 0.7}
{"compound": "COc1ccccc1/C=C1\\CN(C(=O)C2CC(c3ccccc3)NC23C(=O)Nc2ccccc23)CC2(C1=O)C(c1ccccc1OC)C(c1ccccc1)NC21C(=O)Nc2ccccc21 (racemic)", "Ratio IC50": 3.51}

====

Reported values: pIC50 for Acetylcholinesterase (Electrophorus electricus), one per item.
pIC50: −log10 of the molar value.
attribute measured: pIC50

{"compound": "O=C(C1CC(c2ccccc2)NC12C(=O)Nc1ccccc12)N1C/C(=C\\c2ccc(F)cc2)C(=O)C2(C1)C(c1ccc(F)cc1)C(c1ccccc1)NC21C(=O)Nc2ccccc21 (racemic)", "numeric readout": 4.66}
{"compound": "Cc1ccc(/C=C2\\CN(C(=O)C3CC(c4ccccc4)NC34C(=O)Nc3ccccc34)CC3(C2=O)C(c2ccc(C)cc2)C(c2ccccc2)NC32C(=O)Nc3ccccc32)cc1 (racemic)", "numeric readout": 4.69}
{"compound": "O=C(C1CC(c2ccccc2)NC12C(=O)Nc1ccccc12)N1C/C(=C\\c2ccccc2Cl)C(=O)C2(C1)C(c1ccccc1Cl)C(c1ccccc1)NC21C(=O)Nc2ccccc21 (racemic)", "numeric readout": 4.95}
{"compound": "C=CC(=O)N1C/C(=C\\c2ccc(F)cc2)C(=O)C2(C1)C(c1ccc(F)cc1)C(c1ccccc1)NC21C(=O)Nc2ccccc21 (racemic)", "numeric readout": 5.22}
{"compound": "C=CC(=O)N1C/C(=C\\c2cccc([N+](=O)[O-])c2)C(=O)C2(C1)C(c1cccc([N+](=O)[O-])c1)C(c1ccccc1)NC21C(=O)Nc2ccccc21 (racemic)", "numeric readout": 4.82}
{"compound": "C=CC(=O)N1C/C(=C\\c2ccc(C)cc2)C(=O)C2(C1)C(c1ccc(C)cc1)C(c1ccccc1)NC21C(=O)Nc2ccccc21 (racemic)", "numeric readout": 4.84}
{"compound": "O=C(C1CC(c2ccccc2)NC12C(=O)Nc1ccccc12)N1C/C(=C\\c2ccc(Cl)cc2)C(=O)C2(C1)C(c1ccc(Cl)cc1)C(c1ccccc1)NC21C(=O)Nc2ccccc21 (racemic)", "numeric readout": 4.91}
{"compound": "Cc1ccccc1/C=C1\\CN(C(=O)C2CC(c3ccccc3)NC23C(=O)Nc2ccccc23)CC2(C1=O)C(c1ccccc1C)C(c1ccccc1)NC21C(=O)Nc2ccccc21 (racemic)", "numeric readout": 4.52}
{"compound": "O=C(C1CC(c2ccccc2)NC12C(=O)Nc1ccccc12)N1C/C(=C\\c2cccc3ccccc23)C(=O)C2(C1)C(c1cccc3ccccc13)C(c1ccccc1)NC21C(=O)Nc2ccccc21 (racemic)", "numeric readout": 5.03}
{"compound": "O=C(C1CC(c2ccccc2)NC12C(=O)Nc1ccccc12)N1C/C(=C\\c2ccc(Cl)cc2Cl)C(=O)C2(C1)C(c1ccc(Cl)cc1Cl)C(c1ccccc1)NC21C(=O)Nc2ccccc21 (racemic)", "numeric readout": 5.06}
